Assay: CBD trough plasma concentration in clinical trials CBD-CT1 and CBD-PT (LC-MS/MS)
Format: in vivo, patients
Conditions: both sexes, human, plasma, oral, 600 mg/d; Day 7, mean ± SD, CBD-CT1 + CBD-PT pooled (only PT measured)
Description: CBD was administered as an oral dose in a capsule formulation. The dose was increased during the first week from 200 mg/d to 800 mg/d (4×200 mg) and remained at this level for the rest of the study period. Due to serious unwanted effects, the dose could be reduced irreversibly to 600 mg/d starting with day 15. […] Dose applications, blood sampling, and assessment of PANSS followed the time schedule presented below. […]
RESULT_TYPE: concentration at 7 day (ng/mL)
Only the number, expressed in ng/mL, is required.

Q: // returns reported concentration at 7 day for input "C=C(C)[C@@H]1CCC(C)=C[C@H]1c1c(O)cc(CCCCC)cc1O"
Result: 14.1
